Each recorded value in this set is attributed to patent US20110275635A1.

- tgt: B. anthracis NADs (Bacillus anthracis)
- Sequence (Q81RP3 whole entry, looked up): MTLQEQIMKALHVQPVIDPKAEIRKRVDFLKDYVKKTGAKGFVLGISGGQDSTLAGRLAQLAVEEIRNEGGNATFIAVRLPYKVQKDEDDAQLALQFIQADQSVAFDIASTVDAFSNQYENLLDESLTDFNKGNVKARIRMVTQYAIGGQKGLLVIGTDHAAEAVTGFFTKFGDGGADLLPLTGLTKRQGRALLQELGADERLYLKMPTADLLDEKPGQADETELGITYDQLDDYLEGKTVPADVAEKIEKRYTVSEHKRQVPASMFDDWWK
- Type: biochemical
- conditions used: read-out: IC50
pIC50: −log10 of the molar value.
Items are presented alongside their recorded pIC50.

{"columns": ["compound", "pIC50"],
 "data": [
  ["O=C(NC(=S)Nc1cc(-c2nc3ccccc3[nH]2)ccc1Cl)c1ccccc1[N+](=O)[O-] [Compound 5831]", 3.61],
  ["Cc1onc(-c2ccccc2)c1NC(=O)Nc1ccc(Oc2ncnc3cc(Cl)ccc23)nc1 [Compound 5763]", 3.63],
  ["O=C(Nc1cccc(C(=O)Nc2cccc3ccccc23)c1)c1cccc([N+](=O)[O-])c1 [Compound 5802]", 3.65],
  ["O=C(COC(=O)c1ccc(NC(=O)c2ccc([N+](=O)[O-])cc2)cc1)c1ccc(F)cc1 [Compound 5606]", 3.85],
  ["Nc1ncnc(Nc2ccc(Cl)cc2C(=O)c2ccccc2Cl)c1[N+](=O)[O-] [Compound 5616]", 3.68],
  ["COc1cccc(NC(=O)Nc2nnc(COc3ccc([N+](=O)[O-])cc3)s2)c1 [Compound 5807]", 3.91],
  ["COc1ccccc1NC(=O)NC(=O)c1ccc(-c2csnn2)cc1 [Compound 5737]", 3.63],
  ["NC(=O)c1ccc(NC(=O)c2ccc(Oc3ccc([N+](=O)[O-])cc3Cl)cc2)cc1 [Compound 5821]", 3.98]
]}
